Cited source for all entries: PubChem BioAssay AID2060483

Tested on: K24384-001-R-PDC complex spheroids, viability
Assay: Anticancer human tumor K24384-001-R-PDC patient-derived pancreatic adenocarcinoma cell line growth inhibition [GQUAD]
Settings: second compound 0.0316 µM; first compound 0.1 µM; stronger effect = lower value
// reported viability, T/C for each item listed

compound	target_of_assay	viability, T/C, %
C=CCn1c(=O)c2cnc(Nc3ccc(N4CCN(C)CC4)cc3)nc2n1-c1cccc(C(C)(C)O)n1 + Cc1cnc(CNC(=O)c2c(=O)c3ccc(N4CCCN(C)CC4)nc3n3c2sc2ccccc23)cn1	K24384-001-R-PDC complex spheroids, viability	76.6
Cc1cccc(N(C)C(=O)C2C(O)CCN2c2nc(C)cc(C(F)(F)F)c2C#N)c1 (stereo not drawn) + Cc1[nH]c2ccc(F)cc2c1-c1nc2c3cccnc3c3ncccc3c2[nH]1	K24384-001-R-PDC complex spheroids, viability	90.9
CC1COCCN1c1cc(C2(S(C)(=N)=O)CC2)nc(-c2ccnc3[nH]ccc23)n1 (stereo not drawn) + Cc1cnc(CNC(=O)c2c(=O)c3ccc(N4CCCN(C)CC4)nc3n3c2sc2ccccc23)cn1	K24384-001-R-PDC complex spheroids, viability	100
C#Cc1c(F)ccc2cc(O)cc(-c3ncc4c(N5CC6CCC(C5)N6)nc(OCC56CCCN5CC(F)C6)nc4c3F)c12 (stereo not drawn) + CN(C)c1ccc(Nc2c3ccc(NC(=O)CCN4CCCC4)cc3nc3cc(NC(=O)CCN4CCCC4)ccc23)cc1	K24384-001-R-PDC complex spheroids, viability	84.6
COc1ccc([C@@H](O)c2cc(-c3ncnc4cc(N5CCOCC5)ccc34)c(F)cc2Cl)nn1 + Cc1[nH]c2ccc(F)cc2c1-c1nc2c3cccnc3c3ncccc3c2[nH]1	K24384-001-R-PDC complex spheroids, viability	89.6
CC(C)(O)C1CCC(Nc2ccc3ncc(-c4cccc(C(F)(F)F)c4)n3n2)CC1 (stereo not drawn) + Cc1cnc(CNC(=O)c2c(=O)c3ccc(N4CCCN(C)CC4)nc3n3c2sc2ccccc23)cn1	K24384-001-R-PDC complex spheroids, viability	85.6
Cc1cccc(N(C)C(=O)C2C(O)CCN2c2nc(C)cc(C(F)(F)F)c2C#N)c1 (stereo not drawn) + Cc1cnc(CNC(=O)c2c(=O)c3ccc(N4CCCN(C)CC4)nc3n3c2sc2ccccc23)cn1	K24384-001-R-PDC complex spheroids, viability	81.5
CCCS(=O)(=O)Nc1ccc(F)c(C(=O)c2c[nH]c3ncc(-c4ccc(Cl)cc4)cc23)c1F + Cc1[nH]c2ccc(F)cc2c1-c1nc2c3cccnc3c3ncccc3c2[nH]1	K24384-001-R-PDC complex spheroids, viability	137

* * *

// reported pIC50 for each item listed
System: K24384-001-R-PDC complex spheroids, viability
Assay: Anticancer human tumor K24384-001-R-PDC cell line growth inhibition [GQUAD];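 note: spheroids exposed to compounds for seven days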
Conditions: curve of first compound; second compound 0.1 µM
pIC50: −log10 of the molar value.

compound	readout_relation	pIC50
O=C(c1cc(Cc2n[nH]c(=O)c3ccccc23)ccc1F)N1CCN(C(=O)C2CC2)CC1 + CN(C)c1ccc(Nc2c3ccc(NC(=O)CCN4CCCC4)cc3nc3cc(NC(=O)CCN4CCCC4)ccc23)cc1	<	5.00
CC(C)n1c(=O)n(C)c2cnc3cc(F)c(-c4ccc(OCCCN5CCCCC5)nc4)cc3c21 + CN(C)c1ccc(Nc2c3ccc(NC(=O)CCN4CCCC4)cc3nc3cc(NC(=O)CCN4CCCC4)ccc23)cc1	<	5.00
CC1COCCN1c1cc(C2(O)CC3CCC(C2)O3)c2cnn(-c3ccn[nH]3)c2n1 (stereo not given) + Cc1cnc(CNC(=O)c2c(=O)c3ccc(N4CCCN(C)CC4)nc3n3c2sc2ccccc23)cn1	>	7.50
CCCS(=O)(=O)Nc1ccc(F)c(C(=O)c2c[nH]c3ncc(-c4ccc(Cl)cc4)cc23)c1F + Cc1cnc(CNC(=O)c2c(=O)c3ccc(N4CCCN(C)CC4)nc3n3c2sc2ccccc23)cn1	=	5.20
CC[C@@]1(O)C(=O)OCc2c1cc1n(c2=O)Cc2cc3c(CN(C)C)c(O)ccc3nc2-1 + CN(C)c1ccc(Nc2c3ccc(NC(=O)CCN4CCCC4)cc3nc3cc(NC(=O)CCN4CCCC4)ccc23)cc1	=	7.02

* * *

Tested on: K24384-001-R-PDC complex spheroids, viability
Assay: Anticancer human tumor K24384-001-R-PDC cell line growth inhibition [GQUAD];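 note: spheroids exposed to compounds for seven days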
Conditions: second compound 0.316 µM; first compound 1 µM; stronger effect = lower value
measure: viability, T/C (%)

compound	target_of_assay	measure	unit_tag	value
COc1ncnc(C2CC2)c1-c1ncc2cnn(Cc3ccc(-c4nc(C(F)(F)F)cn4C(C)C)cc3)c2n1 + Cc1[nH]c2ccc(F)cc2c1-c1nc2c3cccnc3c3ncccc3c2[nH]1	K24384-001-R-PDC complex spheroids, viability	viability, T/C	%	95.6
COc1cccc2c1C(=O)c1c(O)c3c(c(O)c1C2=O)CC(O)(C(=O)CO)CC3OC1CC(N)C(O)C(C)O1 (configuration not stated) + Cc1cnc(CNC(=O)c2c(=O)c3ccc(N4CCCN(C)CC4)nc3n3c2sc2ccccc23)cn1	K24384-001-R-PDC complex spheroids, viability	viability, T/C	%	20.6
CC1COCCN1c1cc(-c2ccnn2C)c2ccnc(-c3ccn[nH]3)c2n1 (configuration not stated) + Cc1cnc(CNC(=O)c2c(=O)c3ccc(N4CCCN(C)CC4)nc3n3c2sc2ccccc23)cn1	K24384-001-R-PDC complex spheroids, viability	viability, T/C	%	34.7
O=c1[nH]cc(F)c(=O)[nH]1 + Cc1cnc(CNC(=O)c2c(=O)c3ccc(N4CCCN(C)CC4)nc3n3c2sc2ccccc23)cn1	K24384-001-R-PDC complex spheroids, viability	viability, T/C	%	41.8
CC1COCCN1c1cc(C2(O)CC3CCC(C2)O3)c2cnn(-c3ccn[nH]3)c2n1 (configuration not stated) + Cc1cnc(CNC(=O)c2c(=O)c3ccc(N4CCCN(C)CC4)nc3n3c2sc2ccccc23)cn1	K24384-001-R-PDC complex spheroids, viability	viability, T/C	%	31.9
CC(C)(O)C1CCC(Nc2ccc3ncc(-c4cccc(C(F)(F)F)c4)n3n2)CC1 (configuration not stated) + Cc1[nH]c2ccc(F)cc2c1-c1nc2c3cccnc3c3ncccc3c2[nH]1	K24384-001-R-PDC complex spheroids, viability	viability, T/C	%	73.4
C#Cc1c(F)ccc2cc(O)cc(-c3ncc4c(N5CC6CCC(C5)N6)nc(OCC56CCCN5CC(F)C6)nc4c3F)c12 (configuration not stated) + CN(C)c1ccc(Nc2c3ccc(NC(=O)CCN4CCCC4)cc3nc3cc(NC(=O)CCN4CCCC4)ccc23)cc1	K24384-001-R-PDC complex spheroids, viability	viability, T/C	%	61.5
C#Cc1c(F)ccc2cc(O)cc(-c3ncc4c(N5CC6CCC(C5)N6)nc(OCC56CCCN5CC(F)C6)nc4c3F)c12 (configuration not stated) + Cc1[nH]c2ccc(F)cc2c1-c1nc2c3cccnc3c3ncccc3c2[nH]1	K24384-001-R-PDC complex spheroids, viability	viability, T/C	%	57.4
CC1COCCN1c1cc(C2(S(C)(=N)=O)CC2)nc(-c2ccnc3[nH]ccc23)n1 (configuration not stated) + Cc1cnc(CNC(=O)c2c(=O)c3ccc(N4CCCN(C)CC4)nc3n3c2sc2ccccc23)cn1	K24384-001-R-PDC complex spheroids, viability	viability, T/C	%	52.3
COc1ccc([C@@H](O)c2cc(-c3ncnc4cc(N5CCOCC5)ccc34)c(F)cc2Cl)nn1 + CN(C)c1ccc(Nc2c3ccc(NC(=O)CCN4CCCC4)cc3nc3cc(NC(=O)CCN4CCCC4)ccc23)cc1	K24384-001-R-PDC complex spheroids, viability	viability, T/C	%	56.8
C=CCn1c(=O)c2cnc(Nc3ccc(N4CCN(C)CC4)cc3)nc2n1-c1cccc(C(C)(C)O)n1 + CN(C)c1ccc(Nc2c3ccc(NC(=O)CCN4CCCC4)cc3nc3cc(NC(=O)CCN4CCCC4)ccc23)cc1	K24384-001-R-PDC complex spheroids, viability	viability, T/C	%	16.3
O=C(NO)c1cnc(N2CCN(S(=O)(=O)c3ccc4ccccc4c3)CC2)nc1 + CN(C)c1ccc(Nc2c3ccc(NC(=O)CCN4CCCC4)cc3nc3cc(NC(=O)CCN4CCCC4)ccc23)cc1	K24384-001-R-PDC complex spheroids, viability	viability, T/C	%	23.4
COc1ccc([C@@H](O)c2cc(-c3ncnc4cc(N5CCOCC5)ccc34)c(F)cc2Cl)nn1 + Cc1cnc(CNC(=O)c2c(=O)c3ccc(N4CCCN(C)CC4)nc3n3c2sc2ccccc23)cn1	K24384-001-R-PDC complex spheroids, viability	viability, T/C	%	41.5
Nc1ccn(C2OC(CO)C(O)C2(F)F)c(=O)n1 (configuration not stated) + Cc1cnc(CNC(=O)c2c(=O)c3ccc(N4CCCN(C)CC4)nc3n3c2sc2ccccc23)cn1	K24384-001-R-PDC complex spheroids, viability	viability, T/C	%	36.9
O=C(NO)c1cnc(N2CCN(S(=O)(=O)c3ccc4ccccc4c3)CC2)nc1 + Cc1cnc(CNC(=O)c2c(=O)c3ccc(N4CCCN(C)CC4)nc3n3c2sc2ccccc23)cn1	K24384-001-R-PDC complex spheroids, viability	viability, T/C	%	0.16
CC(C)(O)C1CCC(Nc2ccc3ncc(-c4cccc(C(F)(F)F)c4)n3n2)CC1 (configuration not stated) + Cc1cnc(CNC(=O)c2c(=O)c3ccc(N4CCCN(C)CC4)nc3n3c2sc2ccccc23)cn1	K24384-001-R-PDC complex spheroids, viability	viability, T/C	%	60.9
O=c1[nH]cc(F)c(=O)[nH]1 + Cc1[nH]c2ccc(F)cc2c1-c1nc2c3cccnc3c3ncccc3c2[nH]1	K24384-001-R-PDC complex spheroids, viability	viability, T/C	%	53.3
CC(C)(O)C1CCC(Nc2ccc3ncc(-c4cccc(C(F)(F)F)c4)n3n2)CC1 (configuration not stated) + CN(C)c1ccc(Nc2c3ccc(NC(=O)CCN4CCCC4)cc3nc3cc(NC(=O)CCN4CCCC4)ccc23)cc1	K24384-001-R-PDC complex spheroids, viability	viability, T/C	%	94.6
CC1COCCN1c1cc(C2(S(C)(=N)=O)CC2)nc(-c2ccnc3[nH]ccc23)n1 (configuration not stated) + Cc1[nH]c2ccc(F)cc2c1-c1nc2c3cccnc3c3ncccc3c2[nH]1	K24384-001-R-PDC complex spheroids, viability	viability, T/C	%	58.8
CC1COCCN1c1cc(-c2ccnn2C)c2ccnc(-c3ccn[nH]3)c2n1 (configuration not stated) + Cc1[nH]c2ccc(F)cc2c1-c1nc2c3cccnc3c3ncccc3c2[nH]1	K24384-001-R-PDC complex spheroids, viability	viability, T/C	%	33.5
O=c1[nH]cc(F)c(=O)[nH]1 + CN(C)c1ccc(Nc2c3ccc(NC(=O)CCN4CCCC4)cc3nc3cc(NC(=O)CCN4CCCC4)ccc23)cc1	K24384-001-R-PDC complex spheroids, viability	viability, T/C	%	59.1
CC1COCCN1c1cc(C2(O)CC3CCC(C2)O3)c2cnn(-c3ccn[nH]3)c2n1 (configuration not stated) + Cc1[nH]c2ccc(F)cc2c1-c1nc2c3cccnc3c3ncccc3c2[nH]1	K24384-001-R-PDC complex spheroids, viability	viability, T/C	%	32.4
